System: COR-L23
Protocol details: relative viability (nuclei count vs DMSO), 5 days (fraction); higher = more cells survive
Condition context: first compound 20 µM
Reported relative viability values for a set of molecules

# Molecule, relative viability
records = [
    ("COCC1(CO)C(=O)C2CCN1CC2 (configuration not stated) [PRIMA-1MET] + CC(=O)c1c(C)c2cnc(Nc3ccc(N4CCNCC4)cn3)nc2n(C2CCCC2)c1=O [Palbociclib] (partner 0.5 µM)", 0.0222),
    ("COCC1(CO)C(=O)C2CCN1CC2 (configuration not stated) [PRIMA-1MET] + Cc1cc(Nc2cc(N3CCN(C)CC3)nc(Sc3ccc(NC(=O)C4CC4)cc3)n2)n[nH]1 [Tozasertib] (partner 0.1 µM)", 0.0198),
    ("COCC1(CO)C(=O)C2CCN1CC2 (configuration not stated) [PRIMA-1MET] + COc1cc2c(Oc3ccc(NC(=O)C4(C(=O)Nc5ccc(F)cc5)CC4)cc3F)ccnc2cc1OCCCN1CCOCC1 [Foretinib] (partner 0.25 µM)", 0.0732),
    ("COCC1(CO)C(=O)C2CCN1CC2 (configuration not stated) [PRIMA-1MET] + CS(=O)(=O)CCNCc1ccc(-c2ccc3ncnc(Nc4ccc(OCc5cccc(F)c5)c(Cl)c4)c3c2)o1 [Lapatinib] (partner 2 µM)", 0.0199),
    ("COCC1(CO)C(=O)C2CCN1CC2 (configuration not stated) [PRIMA-1MET] + Nc1ncn([C@H]2C[C@H](O)[C@@H](CO)O2)c(=O)n1 [Decitabine] (partner 2 µM)", 0.036),
    ("COCC1(CO)C(=O)C2CCN1CC2 (configuration not stated) [PRIMA-1MET] + CC1(C)CCC(c2ccc(Cl)cc2)=C(CN2CCN(c3ccc(C(=O)NS(=O)(=O)c4ccc(N[C@H](CCN5CCOCC5)CSc5ccccc5)c(S(=O)(=O)C(F)(F)F)c4)cc3)CC2)C1 [Navitoclax] (partner 0.5 µM)", 0.023),
    ("COCC1(CO)C(=O)C2CCN1CC2 (configuration not stated) [PRIMA-1MET] + O=C(CCCCCCC(=O)Nc1ccccc1)NO [Vorinostat] (partner 1 µM)", 0.0281),
]

----------
Tested on: COR-L 105
Protocol details: relative viability (nuclei count vs DMSO), 5 days (fraction); higher = more cells survive
Condition context: first compound 0.6325 µM

# Molecule, relative viability
records = [
    ("COCC1(CO)C(=O)C2CCN1CC2 (centres undefined) [PRIMA-1MET] + CC(=O)Nc1cccc(-n2c(=O)n(C3CC3)c(=O)c3c(Nc4ccc(I)cc4F)n(C)c(=O)c(C)c32)c1 [Trametinib] (partner 0.02 µM)", 0.421),
    ("COCC1(CO)C(=O)C2CCN1CC2 (centres undefined) [PRIMA-1MET] + O=C(CCCCCCC(=O)Nc1ccccc1)NO [Vorinostat] (partner 1 µM)", 0.859),
    ("COCC1(CO)C(=O)C2CCN1CC2 (centres undefined) [PRIMA-1MET] + CS(=O)(=O)CCNCc1ccc(-c2ccc3ncnc(Nc4ccc(OCc5cccc(F)c5)c(Cl)c4)c3c2)o1 [Lapatinib] (partner 2 µM)", 0.33),
    ("COCC1(CO)C(=O)C2CCN1CC2 (centres undefined) [PRIMA-1MET] + CC1(C)CCC(c2ccc(Cl)cc2)=C(CN2CCN(c3ccc(C(=O)NS(=O)(=O)c4ccc(N[C@H](CCN5CCOCC5)CSc5ccccc5)c(S(=O)(=O)C(F)(F)F)c4)cc3)CC2)C1 [Navitoclax] (partner 0.5 µM)", 0.513),
]

----------
relative viability by entry:
System: NCI-H1651
Protocol details: relative viability (nuclei count vs DMSO), 5 days (fraction); higher = more cells survive
Condition context: first compound 0.8 µM
Observed property: relative viability

# Compound, Assay value
records = [
    ("O=c1cc(-c2cccc3c2Sc2ccccc2S3)oc(N2CCOCC2)c1 + Nc1nc2[nH]cc(CCc3ccc(C(=O)N[C@@H](CCC(=O)O)C(=O)O)cc3)c2c(=O)[nH]1 [Pemetrexed] (partner 0.2 µM)", 0.604),
    ("COc1nc(C)cnc1NS(=O)(=O)c1cccnc1-c1ccc(-c2nnco2)cc1 [Zibotentan] + CC(C)C[C@H](NC(=O)[C@H](Cc1ccccc1)NC(=O)c1cnccn1)B(O)O [Bortezomib] (partner 0.002 µM)", 0.902),
    ("O=c1cc(-c2cccc3c2Sc2ccccc2S3)oc(N2CCOCC2)c1 + CCNC(=O)c1noc(-c2cc(C(C)C)c(O)cc2O)c1-c1ccc(CN2CCOCC2)cc1 [Luminespib] (partner 0.01 µM)", 0.889),
    ("O=c1cc(-c2cccc3c2Sc2ccccc2S3)oc(N2CCOCC2)c1 + Nc1ncn([C@H]2C[C@H](O)[C@@H](CO)O2)c(=O)n1 [Decitabine] (partner 2 µM)", 0.617),
    ("O=c1cc(-c2cccc3c2Sc2ccccc2S3)oc(N2CCOCC2)c1 + C[C@@H](Oc1cc(-c2cnn(C3CCNCC3)c2)cnc1N)c1c(Cl)ccc(F)c1Cl [Crizotinib] (partner 1 µM)", 0.916),
    ("O=c1cc(-c2cccc3c2Sc2ccccc2S3)oc(N2CCOCC2)c1 + COc1cccc2cc(-c3nc([C@H]4CC[C@H](C(=O)O)CC4)n4ncnc(N)c34)[nH]c12 [OSI-027] (partner 0.5 µM)", 0.711),
    ("O=c1cc(-c2cccc3c2Sc2ccccc2S3)oc(N2CCOCC2)c1 + N=C(N)NC(=N)NCCc1ccccc1 [Phenformin] (partner 250 µM)", 0.423),
    ("O=c1cc(-c2cccc3c2Sc2ccccc2S3)oc(N2CCOCC2)c1 + O=C(CCCCCCC(=O)Nc1ccccc1)NO [Vorinostat] (partner 1 µM)", 0.571),
    ("O=c1cc(-c2cccc3c2Sc2ccccc2S3)oc(N2CCOCC2)c1 + CC(C)C[C@H](NC(=O)[C@H](Cc1ccccc1)NC(=O)c1cnccn1)B(O)O [Bortezomib] (partner 0.002 µM)", 0.935),
    ("O=c1cc(-c2cccc3c2Sc2ccccc2S3)oc(N2CCOCC2)c1 + CS(=O)(=O)N1CCN(Cc2cc3nc(-c4cccc5[nH]ncc45)nc(N4CCOCC4)c3s2)CC1 [Pictilisib] (partner 1 µM)", 0.546),
]

----------
Tested on: EMC-BAC-2
Protocol details: relative viability (nuclei count vs DMSO), 5 days (fraction); higher = more cells survive
Condition context: first compound 0.3162 µM
Mark 1.0 only for relative viability values smaller than 0.6; exact matches and larger values are 0.0.

# Compound, Label class
data = [
    ("CCN(CC)CCCCNc1ncc2cc(-c3cc(OC)cc(OC)c3)c(NC(=O)NC(C)(C)C)nc2n1 + CS(=O)(=O)CCNCc1ccc(-c2ccc3ncnc(Nc4ccc(OCc5cccc(F)c5)c(Cl)c4)c3c2)o1 [Lapatinib] (partner 2 µM)", 0.0),
    ("O=c1cc(N2CCOCC2)oc2c(-c3cccc4c3sc3ccccc34)cccc12 + CC1(C)CCC(c2ccc(Cl)cc2)=C(CN2CCN(c3ccc(C(=O)NS(=O)(=O)c4ccc(N[C@H](CCN5CCOCC5)CSc5ccccc5)c(S(=O)(=O)C(F)(F)F)c4)cc3)CC2)C1 [Navitoclax] (partner 0.5 µM)", 0.0),
    ("O=c1cc(N2CCOCC2)oc2c(-c3cccc4c3sc3ccccc34)cccc12 + Cc1cc(Nc2cc(N3CCN(C)CC3)nc(Sc3ccc(NC(=O)C4CC4)cc3)n2)n[nH]1 [Tozasertib] (partner 0.1 µM)", 1.0),
    ("O=c1cc(N2CCOCC2)oc2c(-c3cccc4c3sc3ccccc34)cccc12 + CCNC(=O)c1noc(-c2cc(C(C)C)c(O)cc2O)c1-c1ccc(CN2CCOCC2)cc1 [Luminespib] (partner 0.01 µM)", 0.0),
    ("O=c1cc(N2CCOCC2)oc2c(-c3cccc4c3sc3ccccc34)cccc12 + CC(=O)c1c(C)c2cnc(Nc3ccc(N4CCNCC4)cn3)nc2n(C2CCCC2)c1=O [Palbociclib] (partner 0.5 µM)", 1.0),
    ("O=c1cc(N2CCOCC2)oc2c(-c3cccc4c3sc3ccccc34)cccc12 + C[C@@H](Oc1cc(-c2cnn(C3CCNCC3)c2)cnc1N)c1c(Cl)ccc(F)c1Cl [Crizotinib] (partner 1 µM)", 0.0),
    ("CCN(CC)CCCCNc1ncc2cc(-c3cc(OC)cc(OC)c3)c(NC(=O)NC(C)(C)C)nc2n1 + CS(=O)(=O)N1CCN(Cc2cc3nc(-c4cccc5[nH]ncc45)nc(N4CCOCC4)c3s2)CC1 [Pictilisib] (partner 1 µM)", 1.0),
    ("CCN(CC)CCCCNc1ncc2cc(-c3cc(OC)cc(OC)c3)c(NC(=O)NC(C)(C)C)nc2n1 + NC(=O)Nc1cc(-c2cccc(F)c2)sc1C(=O)N[C@H]1CCCNC1 [AZD7762] (partner 0.2 µM)", 0.0),
    ("CCN(CC)CCCCNc1ncc2cc(-c3cc(OC)cc(OC)c3)c(NC(=O)NC(C)(C)C)nc2n1 + COc1cccc2cc(-c3nc([C@H]4CC[C@H](C(=O)O)CC4)n4ncnc(N)c34)[nH]c12 [OSI-027] (partner 0.5 µM)", 1.0),
    ("CCN(CC)CCCCNc1ncc2cc(-c3cc(OC)cc(OC)c3)c(NC(=O)NC(C)(C)C)nc2n1 + O=C(CCCCCCC(=O)Nc1ccccc1)NO [Vorinostat] (partner 1 µM)", 0.0),
    ("CCN(CC)CCCCNc1ncc2cc(-c3cc(OC)cc(OC)c3)c(NC(=O)NC(C)(C)C)nc2n1 + Cc1nc(NC(=O)N2CCC[C@H]2C(N)=O)sc1-c1ccnc(C(C)(C)C(F)(F)F)c1 [Alpelisib] (partner 2 µM)", 0.0),
    ("O=c1cc(N2CCOCC2)oc2c(-c3cccc4c3sc3ccccc34)cccc12 + C[C@]1(O)C[C@@H](c2nc(-c3ccc4ccc(-c5ccccc5)nc4c3)c3c(N)nccn32)C1 [Linsitinib] (partner 1 µM)", 0.0),
]
